target: FUS-RBD (RGG1-RRM-RGG2-ZnF-RGG3) (UniProt P35637 242-526); assay: fluorescence anisotropy; 12 mM arginine; FA: 10 mM HEPES pH 7.2, 50 mM NaCl, 12 mM arginine (further 1 mM component truncated in the text); temperature not stated; KD from two independent measurements.; settings: protein: recombinant; tags: N-terminal GB1-6xHis; label: 5'-fluorescein; single strand
Sequence (P35637 242-526): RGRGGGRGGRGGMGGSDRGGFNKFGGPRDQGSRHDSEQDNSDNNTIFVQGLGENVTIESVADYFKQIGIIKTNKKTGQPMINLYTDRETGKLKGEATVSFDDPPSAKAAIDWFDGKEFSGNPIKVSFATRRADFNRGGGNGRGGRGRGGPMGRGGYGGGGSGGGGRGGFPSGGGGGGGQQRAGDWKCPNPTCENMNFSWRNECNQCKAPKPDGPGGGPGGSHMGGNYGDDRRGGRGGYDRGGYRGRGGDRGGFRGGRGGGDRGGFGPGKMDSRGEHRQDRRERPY
pKd: −log10 of the molar value.
result_type: pKd

INSERT INTO measurements (binder, recorded_measurement) VALUES
  ('TTTTTACTCC (ssDNA) [TC1]', 7.52);
